Exercise: for every item that follows, state its recorded protein stability index.
B1: SPRY1 (parent)
chain: WIHRPGCRCKNSNTVYCKLESCPS

Variants of: B1
assay notes: protein stability index of a GFP-peptide fusion (GPS, HEK-293T) (PSI 1-6); higher = more stable;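 also: lentivirally expressed fusions sorted by FACS into six bins by GFP to DsRed ratio, PSI derived from sequencing read proportions per bin multiplied by bin number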
cond: c terminus: a fixed tail appended
One number for each entry.

I2S 3.27
N11K 2.19
N11I 1.86

Would you mind listing protein stability index for each of the following variants?
1. C7N
2. S12Y
3. C7G
4. S24I
5. R4V
6. W1K

1: 2.37; 2: 1.97; 3: 1.25; 4: 2.29; 5: 3.11; 6: 3.97
